Where do these numbers come from? They come from PubChem BioAssay (NCI).

Known growth inhibition of a selection of compounds
- experiment_description: NCI Yeast Anticancer Drug Screen. Data for the sgs1 strain (AID 173);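 note: 0% = growth of vehicle-only control cultures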
- condition_notes: S. cerevisiae sgs1 mutant, at 1.2 µM, stronger effect = higher value
Compounds without any hit were thinned out: in the full panel of roughly 79,000, 15% have a hit.
Report the figure in % without appending any unit label.

{"compound": "Cc1ccc(NCCNCCO)c2c(=O)c3cc(O)ccc3sc12", "growth inhibition / %": 15}

Okay, now this compound:
Tell us which growth inhibition value is on record for Cc1cccc2c1nc1ccc(Cl)cc1[n+]2C
3

----------
- experiment_description: NCI Yeast Anticancer Drug Screen. Data for the rad50 strain (AID 155);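 note: 0% = growth of vehicle-only cultures of the same strain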
- condition_notes: S. cerevisiae rad50 strain growth inhibition; at 3.7 µM; stronger effect = higher value
This is part of a sample that, as a whole, favours compounds with a hit. Of some 79,000 tested, about 15% had one in any assay.
readout_name: growth inhibition (%)
The reply should contain only the number, in %.

{"molecule": "CN(CCN(C)Cc1ccccc1)Cc1ccccc1", "growth inhibition / %": -12}
{"molecule": "Oc1[nH]c2ccccc2c1N=NC(=S)N1CCCCC1", "growth inhibition / %": 11}
{"molecule": "CC(C)(C)CC(C)(C)c1cc(O)c(O)c(CN2CCCCC2)c1", "growth inhibition / %": 0}

State its growth inhibition for this molecule: CN(C)c1ccc(N=Nc2ccncc2)cc1
11

Give the measured growth inhibition for C/C=C/SC(=Nc1ccccc1)Nc1ccccc1
-7

Input COC(=O)Nc1cn2ccc(C(Cl)=C(Cl)Cl)cc2n1 , output reported growth inhibition.
-32

Given COc1ccc(/C=C/c2sc3ccccc3[n+]2CCCCI)cc1OC , respond with its growth inhibition.
-3

Specify measured growth inhibition for CN(C)CCOC1(Cc2ccc(F)cc2)CCC(C(C)(C)C)CC1 (stereo not drawn) .
6

Consider the molecule Clc1ccc2c(c1)N(CCCN1CCCC13CCCCC3)c1ccccc1S2 . State its measured growth inhibition.
10

Recall and state the measured growth inhibition for CCCOC(=O)C(F)C(Br)C(=O)OCCC (stereo not drawn) .
90

Answer with the recorded growth inhibition of CN(C)CCNc1ccc2ncnc3c2c1C(=O)c1ccccc1-3 only.
95

Read the entry CN(C)[C@@H]1C(=O)C(C(N)=O)=C(O)[C@@]2(O)C(=O)C3=C(O)c4c(O)cccc4C[C@H]3C[C@@H]12 and write its reported growth inhibition.
-25

Provide only the value of recorded growth inhibition for NC(=S)NC(=S)Nc1ccccc1
-47

Quickly give me recorded growth inhibition for COC1=C(N)C(=O)c2nc(-c3nc(C(=O)O)c(C)c(-c4ccc(OC)c(OC)c4O)c3N)ccc2C1=O
97

Let me know recorded growth inhibition for Cc1c2cc[n+](Cc3ccc(I)cc3)cc2c(C)c2c1[nH]c1ccccc12 , thanks.
12

Output measured growth inhibition for this item: CCc1cc(O)c(Cl)c(C)c1Cl
-19

Supply reported growth inhibition belonging to this molecule: O=c1c2ccccc2nc(-c2ccccc2)n1O
39

Name the recorded growth inhibition of the item O=C1C=C(Cl)C(=O)N1c1cccc(Cl)c1 in your answer.
86

Provide measured growth inhibition value, entry: COC(=O)/C=C(/CC(=O)OC)C(=O)OC
-44

Consider the molecule COc1ccc(NC(=O)CC2SC(=Nc3ccccc3C)NC2=O)c([N+](=O)[O-])c1 (stereo not drawn) . State its measured growth inhibition.
-44

Note down growth inhibition recorded for CCOC(=O)CC1(C(=O)OCC)c2[nH]c3ccccc3c2CCN1Cc1ccccc1 (stereo not drawn)
-2

State its growth inhibition: COc1cc([C@@H]2c3cc4c(cc3[C@H](OC3OC5COC(C(C)C)OC5C(O)C3O)C3COC(=O)[C@@H]32)OCO4)cc(OC)c1O (stereo partly drawn)
-32

Report growth inhibition, nothing else, for this molecule: C#CCN(Cc1ccc2nc(N)[nH]c(=O)c2c1)c1ccc(C(=O)NC(CCC(=O)O)C(=O)O)cc1 (stereo not drawn)
29
